Assay: S. cerevisiae growth modulation with rapamycin, primary screen, strain BY4716, OD600, 96 h (AID 1091); note: test concentration not given here
Details: higher = more signal, called active from +8 up or from −8 down
measurement.name: z-score
No unit in the answer, please; the number alone is enough.

Reference set, count: 3
>  <smiles.notation>
C=CCOC(=O)[C@H]1[C@@H]2C(=O)O[C@@H](c3ccccc3)[C@@H](c3ccccc3)N2[C@@H](c2ccc(OCCOC(=O)[C@@H]3C[C@@H]4C(=O)N[C@@H](Cc5ccccc5)C(=O)N4[C@@H]3c3ccc(O)cc3)cc2)[C@]12C(=O)Nc1ccc(I)cc12

>  <z-score>
5.89

$$$$
>  <smiles.notation>
COCCCNC(=O)[C@@]1(Cc2ccccc2I)c2ccccc2C(=O)N(C2CCCCC2)[C@H]1c1ccc(CO)cc1

>  <z-score>
-1.11

$$$$
>  <smiles.notation>
COC(=O)C[C@H]1O[C@]2(C(=O)N(C)c3ccccc32)[C@@H](C)[C@@H]1[Si](C)(C)c1ccccc1

>  <z-score>
-2.45

$$$$

Q: For the molecule C=CC[C@H](OC(=O)Nc1ccc(SC)cc1)c1ccc(O)c(F)c1 , report z-score.
A: -1.19

These measurements were taken from PubChem BioAssay.
